FYI, the data here is from ChEMBL document CHEMBL1201862.

Parameter GI50: see the listing below.
System: ACHN
Experiment: NCI tumour cell line growth inhibition, 48 h
Activity calls are given as the source filed them. No stated cut-off is given here; in the data, active = GI50 up to about 1.1 µM and inactive = higher.

Example compounds with recorded GI50:
>>> result("O=C(NN1C(=O)C(Cl)C1c1ccc(O)cc1)c1ccccc1O (stereo not given)")
"19.1 µM (inactive)"
>>> result("COC(=O)C1(SC)C2CCC3C2CCC31 (stereo not given)")
"> 100 µM (inactive)"
>>> result("O=C(O)[C@@H]1NC[C@H]2C(Br)=NO[C@H]21")
"> 100 µM (inactive)"
>>> result("CCOC(=O)C1CCCCN1C(=O)Cc1c[nH]c2ccccc12 (stereo not given)")
"71.4 µM (inactive)"
>>> result("COc1ccc(CC#C/C=C/C(=O)NCC(C)C)cc1")
"> 100 µM (inactive)"

Exam item: Check the records and state GI50 for `CC1=C(CO)C(=O)O[C@@H]([C@@H](C)[C@H]2CC[C@H]3[C@@H]4C[C@H]5O[C@]56[C@@H](O)C=CC(=O)[C@]6(C)[C@H]4CC[C@]23C)C1`
Marked response: 1.7 µM (inactive)

Exam item: Check the records and state GI50 for `O=C(N/N=C/c1ccc([N+](=O)[O-])cc1)c1cccc2nc3ccccc3nc12`
Marked response: > 38.5 µM (inactive)

Exam item: Check the records and state GI50 for O=C1OC(CCCl)(c2ccccc2)CC1CN1CCOCC1 (stereo not given)
Marked response: 32.2 µM (inactive)

Exam item: Check the records and state GI50 for Nc1nc(N)c2ncn(CC3CCC(CO)C3)c2n1 (stereo not given)
Marked response: > 100 µM (inactive)

Exam item: Check the records and state GI50 for `O=C1C=C(O)c2nc(O)ccc2C1=O`
Marked response: > 100 µM (inactive)

----------
Tested on: UACC-257
Assay: NCI tumour cell line growth inhibition, 48 h
Calls of active or inactive are those of the source. Rule as the data show it: active = GI50 up to about 1.1 µM and inactive = higher.
// one of active, inactive, no free text

>>> class_label("CCOC(=O)c1cc(C2CCN(CC(C)CC)C2=S)c(C(=O)/C=C(/C)N)[nH]1 (stereo unspecified)")
"inactive"
>>> class_label("c1ccc(P2c3ccccc3Nc3ccccc32)cc1")
"inactive"
>>> class_label("COc1cc(C2c3cc4c(cc3[C@@H](Nc3ccc(F)cc3)C3CO[C@@H](O)[C@H]23)OCO4)cc(OC)c1O (stereo partly specified)")
"inactive"
>>> class_label("O=C1C=C(O)c2nc(O)ccc2C1=O")
"inactive"
>>> class_label("COc1ccc2c(c1)c1c(n2CCN2CCCCC2)-c2ccccc2CC1")
"inactive"

Could you now consider this next molecule?
Exam item: Kindly provide the recorded test outcome for the following molecule: `O=C1NCN(c2ccccc2)C12CCN(CCc1ccc3[nH]c(=S)[nH]c3c1)CC2`
Marked response: active

----------
Test system: OVCAR-4
Experiment: NCI tumour cell line growth inhibition, 48 h
Active and inactive are the calls of the source. Rule as the data show it: active = GI50 up to about 1.1 µM and inactive = higher.
Parameter GI50: see the listing below.

Example molecules with recorded GI50:
>>> result("Cc1ccc(F)c2c(=O)cc(-c3ccccc3)[nH]c12")
"> 100 µM (inactive)"
>>> result("C=C(C)[C@H]1CC23C(=O)C(C(=O)C(C)C)=C(O)[C@](C)(C[C@H]2C1(C)C)C3=O [LALIBINONE B]")
"12.6 µM (inactive)"
>>> result("N#CC(/C(=N/NC(N)=S)C(=O)Nc1cccc(Cl)c1)c1ccccc1 (stereo not drawn)")
"> 100 µM (inactive)"
>>> result("CC1(C)OC[C@@H](C[C@H](O)COCc2ccccc2)O1")
"> 100 µM (inactive)"
>>> result("COc1ccccc1NCc1nnc(CCCCCCCCc2nnc(CNc3ccccc3OC)o2)o1")
"> 100 µM (inactive)"
>>> result("[O-][S+]1Cc2ccccc2CS1 (stereo not drawn)")
"16 µM (inactive)"
>>> result("COc1cc(/C=C(\\NC(=O)c2ccccc2)c2nc3c(O)nc(S)nc3[nH]2)cc(OC)c1OC")
"> 100 µM (inactive)"
>>> result("COC(=O)/C(=N\\Nc1nc(S)nn1N)C(C#N)c1ccccc1 (stereo not drawn)")
"> 100 µM (inactive)"

Exam item: Check the records and state GI50 for C=C1C(=O)C=C2C=C3C(=O)C(C)(C)C[C@]3(O)C12C (stereo partly drawn)
Marked response: 3.43 µM (inactive)

Exam item: Check the records and state GI50 for CC(=O)C1=CN=C2C(=O)N(c3ccccc3)N(C)C12C (stereo not drawn)
Marked response: > 100 µM (inactive)

Exam item: Check the records and state GI50 for `CCOC(=O)[C@@]12NN=N[C@@H]1[C@H]1CO[C@H](c3ccccc3)N1C2=O`
Marked response: 16.5 µM (inactive)

Exam item: Check the records and state GI50 for `N#Cc1c(-c2ccco2)cc(-c2ccc(NCc3nc4ccccc4[nH]3)cc2)nc1N`
Marked response: 22.8 µM (inactive)

Exam item: Check the records and state GI50 for COc1ccc2cc1Oc1ccc(cc1)CC1c3cc4c(cc3CCN1C)Oc1c(OC)cc3c(c1O4)C(C2)N(C)CC3 (stereo not drawn)
Marked response: 1.47 µM (inactive)

Exam item: Check the records and state GI50 for `CS(=O)(=O)c1c(N)c2nc(Cl)cn2c2nc3ccccc3nc12`
Marked response: > 100 µM (inactive)

Exam item: Check the records and state GI50 for `COc1ccc(C(c2c(O)c3ccccc3n(-c3ccccc3)c2=O)c2c(O)c3ccccc3n(-c3ccccc3)c2=O)cc1`
Marked response: > 100 µM (inactive)

Exam item: Check the records and state GI50 for Cc1cc(NCC2CC/C(=C\C=C\c3ccccc3)C2=O)no1 (stereo not drawn)
Marked response: > 100 µM (inactive)

Exam item: Check the records and state GI50 for COc1ccc(/C=C2\CCC(CCN(C)C)(C3=CCCC3)C2=O)cc1Br (stereo not drawn)
Marked response: 3.68 µM (inactive)

Exam item: Check the records and state GI50 for `OC(C/C(=N\N=C(/CC(O)(C(F)(F)F)C(F)(F)F)c1ccccc1)c1ccccc1)(C(F)(F)F)C(F)(F)F`
Marked response: > 10 µM (inactive)

Exam item: Check the records and state GI50 for `COc1ccc(S(=O)(=O)O)cc1-n1nc(C(=O)Nc2ccccc2)n[n+]1-c1cc(S(=O)(=O)[O-])ccc1OC`
Marked response: > 100 µM (inactive)

Exam item: Check the records and state GI50 for CC(=O)OC1COC(N2C(=O)C(=O)c3ccccc32)C(OC(C)=O)C1OC(C)=O (stereo not drawn)
Marked response: > 100 µM (inactive)

Exam item: Check the records and state GI50 for CC1CC[C@@]2(OC1)OC1C[C@H]3[C@@H]4C/C(=N\N(C)C)[C@@]5(O)CC(O)CC[C@]5(C)[C@H]4CC[C@]3(C)C1[C@@H]2C (stereo partly drawn)
Marked response: 74.6 µM (inactive)

Exam item: Check the records and state GI50 for `Cc1ccc(S(=O)(=O)N2CCN(S(=O)(=O)c3ccc(C)cc3)CCN(S(=O)(=O)c3ccc(C)cc3)Cc3cc(Br)c(Br)cc3CN(S(=O)(=O)c3ccc(C)cc3)CC2)cc1`
Marked response: 44.1 µM (inactive)

Exam item: Check the records and state GI50 for [O-][S+]1c2ccccc2N=C(c2cccc3ccccc23)CC1c1cccc2ccccc12 (stereo not drawn)
Marked response: 12.8 µM (inactive)

Exam item: Check the records and state GI50 for `Oc1cc(-c2ccccc2)nc2cc(Cl)ccc12`
Marked response: 9.14 µM (inactive)

Exam item: Check the records and state GI50 for `C/C(N)=N/OCc1nc(C)no1`
Marked response: > 100 µM (inactive)
